List of OD450 nm values.
Target: T1, polypeptide GC3pep (human)
T1 construct: also called membrane proximal polypeptide GC3pep
T1 peptide: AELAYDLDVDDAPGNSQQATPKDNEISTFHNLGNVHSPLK
Experiment: ELISA, GC3pep coated, antibody 0.0001 nM
Report field: quantity (unit follows the number).

| binder | OD450 nm |
| --- | --- |
| F2.55.11 (antibody, human IgG1, kappa, V domains shown, human-murine chimeric antibody) VH: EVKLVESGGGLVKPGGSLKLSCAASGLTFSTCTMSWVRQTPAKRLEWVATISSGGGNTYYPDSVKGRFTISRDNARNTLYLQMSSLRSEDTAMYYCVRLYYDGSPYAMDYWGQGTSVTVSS VL: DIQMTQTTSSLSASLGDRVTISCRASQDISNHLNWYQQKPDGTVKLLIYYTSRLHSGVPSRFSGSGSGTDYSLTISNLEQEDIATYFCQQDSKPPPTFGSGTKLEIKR | 0.05 OD450 nm |
| F1.9.19 (antibody, human IgG1, kappa, V domains shown, human-murine chimeric antibody) VH: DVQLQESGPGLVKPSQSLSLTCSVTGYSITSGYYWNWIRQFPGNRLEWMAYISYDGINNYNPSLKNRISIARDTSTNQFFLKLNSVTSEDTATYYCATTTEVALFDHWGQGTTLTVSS VL: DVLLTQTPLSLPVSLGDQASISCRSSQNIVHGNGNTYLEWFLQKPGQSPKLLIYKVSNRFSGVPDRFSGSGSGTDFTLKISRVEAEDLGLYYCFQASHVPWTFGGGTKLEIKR | 0.05 OD450 nm |
| F3.54.12 (antibody, human IgG1, kappa, V domains shown, human-murine chimeric antibody) VH: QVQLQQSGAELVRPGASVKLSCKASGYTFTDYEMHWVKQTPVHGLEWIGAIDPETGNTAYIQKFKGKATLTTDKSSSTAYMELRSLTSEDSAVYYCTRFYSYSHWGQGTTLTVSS VL: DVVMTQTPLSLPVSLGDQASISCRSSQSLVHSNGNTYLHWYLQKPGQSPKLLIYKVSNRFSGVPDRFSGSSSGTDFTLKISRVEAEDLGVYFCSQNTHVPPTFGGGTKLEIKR | 0.07 OD450 nm |
| F2.23.8 (antibody, human IgG1, kappa, V domains shown, human-murine chimeric antibody) VH: QVQLQQSGAELVRPGASVKLSCKASGYTFTDYEMHWVKQTPVHGLEWFGAIDPETGGTAYNQKFRAKATLTADKSSSTAYMELRSLTSEDSAVYYCTRFYSFAYWGQGTLVTVSA VL: DVVMTQTPLSLPVSLGDQASISCRSSQSLVHSNGNTYLQWYLQKPGQSPKLLIYKVSNRFSGVPDRFSGSGSGTDFTLKITRVEAEDLGVYFCSQSTHVPYTFGSGTKLEIKR | 0.07 OD450 nm |
| F2.169.2 (antibody, human IgG1, kappa, V domains shown, human-murine chimeric antibody) VH: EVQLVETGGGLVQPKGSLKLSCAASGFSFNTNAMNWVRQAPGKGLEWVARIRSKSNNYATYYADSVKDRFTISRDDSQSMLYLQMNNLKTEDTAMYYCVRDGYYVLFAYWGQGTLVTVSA VL: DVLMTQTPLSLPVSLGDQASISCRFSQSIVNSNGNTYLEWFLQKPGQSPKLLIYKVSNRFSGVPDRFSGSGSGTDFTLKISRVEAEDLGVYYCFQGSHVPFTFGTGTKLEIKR | 0.05 OD450 nm |

The reported OD450 nm of the binder F1.57.21 (antibody, human IgG1, kappa, V domains shown, human-murine chimeric antibody) VH: QVQLQQSGAELARPGASVKLSCKASGYTFTSYGISWVKQITGQGLEWIGEIYPRSESTYYNEKFKGKATLTADKSSSTAYMELRSLTSEDSAVYFCARDYGNIYSFAYWGQGTLVTVSA VL: DIQMTQSPASLSASVGETVTITCRTSENIYSYLAWYQQKQGKSPQLLVYNAKTLAEGVPSRFSGSGSGTQFSLKINSLQPEDFGSYYCQHHYGTPLTFGAGTKLELKR was 0.05 OD450 nm

The reported OD450 nm of the binder F1.3.9 (antibody, human IgG1, kappa, V domains shown, human-murine chimeric antibody) VH: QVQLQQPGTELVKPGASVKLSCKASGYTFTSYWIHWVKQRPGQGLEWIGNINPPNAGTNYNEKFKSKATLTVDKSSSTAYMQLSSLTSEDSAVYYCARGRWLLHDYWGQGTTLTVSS VL: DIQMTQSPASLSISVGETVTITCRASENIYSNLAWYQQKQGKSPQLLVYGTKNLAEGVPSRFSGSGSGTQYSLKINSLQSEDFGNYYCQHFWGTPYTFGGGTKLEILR was 0.07 OD450 nm

The reported OD450 nm of the binder F2.154.1 (antibody, human IgG1, kappa, V domains shown, human-murine chimeric antibody) VH: QVQLQQSGAELVRPGASVKLSCKASGYRFTDYEMHWVKQTPVHGLEWIGTIDPETGNTAYTQKFMDKATLTADKSSSTAYMELRSLTSEDSAVYYCTRGYSFTYWGQGTLATVSA VL: DVLMTQTPLSLPVSLGDQASISCRSSQNIVHSNGNTYLQWYLQKPGQSPKLLIFKVSNRFSGVPDRFSGSGSGTDFTLKISRVEAEDLGVYYCFQGSHVPFTFGTGTKLEIKR was 0.05 OD450 nm

The reported OD450 nm of the binder F4.13.7 (antibody, human IgG1, kappa, V domains shown, human-murine chimeric antibody) VH: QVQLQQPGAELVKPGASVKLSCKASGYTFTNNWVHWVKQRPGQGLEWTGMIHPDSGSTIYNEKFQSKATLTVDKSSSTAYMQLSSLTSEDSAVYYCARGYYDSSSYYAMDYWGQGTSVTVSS VL: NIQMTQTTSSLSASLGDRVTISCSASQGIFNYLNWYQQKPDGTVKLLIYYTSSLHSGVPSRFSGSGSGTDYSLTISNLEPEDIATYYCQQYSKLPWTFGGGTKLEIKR was 0.05 OD450 nm

The reported OD450 nm of the binder F1.21.8 (antibody, human IgG1, kappa, V domains shown, human-murine chimeric antibody) VH: EVQLQQSGPELVKPGASVKISCKTSGFLFTGHYMHWVKSSHGNILDWIGYIYPYNAISFYNQKFKGKATLTVDKSSNTAYMELRSLTSEDSAVYYCARGDYGNYVTAYWGQGTLVTVSA VL: DVLMTQTPLSLPVSLGDQASISCRSSQSIVHSSGNTYLEWYLQKPGQSPKLLIYKVSNRFSGVPDRFSGSGSGTDFTLKISRVEAEDLGVYYCFQGSHLPWTFGGGTKLDIKR was 0.05 OD450 nm
